Quick reference: Kd of the listed items.
TARGET_SYSTEM: mouse SAA3 (mSAA3) (Mus musculus)
Construct: hexa-histidine tag followed by thrombin cleavage site (N, cleaved yes); made in house; host or cells: Escherichia coli BL21-CodonPlus (DE3)-RILP
Sequence (P04918 19-122): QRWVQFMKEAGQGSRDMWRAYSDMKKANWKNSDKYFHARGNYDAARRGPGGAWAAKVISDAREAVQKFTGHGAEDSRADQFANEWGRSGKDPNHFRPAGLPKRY
ASSAY_INFO: Fluorometric retinoid binding assay, mSAA3
MEASUREMENT_SETUP: tryptophan fluorescence quenching, excitation 296 nm, emission 334 nm, 0.5 μM protein
The reply should contain only the number, in nM.

CC1=C(/C=C/C(C)=C/C=C/C(C)=C/C(=O)O)C(C)(C)CCC1 ... 224

Asked: Query: Kd; subject: CC1=C(/C=C/C(C)=C/C=C/C(C)=C/C=C/C=C(C)/C=C/C=C(C)/C=C/C2=C(C)CCCC2(C)C)C(C)(C)CCC1
Given back: 159

Data origin: paper PMC4129439
